# credit: the supplement of paper PMC5499739

tested on: RBM10 RRM1-ZnF-RRM2 (GST-tagged construct); assay: RNAcompete 7-mer binding Z-score; higher = stronger binding preference;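 also: 20 pmol protein with 1.5 nmol RNA pool for 30 min at 4°C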
Whole data set: some 16,000 sequences, median “Z-score” near -0.37, cut for the highest 2% near 3.1. What follows is part of a selection rich in the highest values, with near analogues and random picks from the rest.
property_measured: RNAcompete 7-mer binding Z-score

sequence_string=GGGUAAC property_measured="RNAcompete 7-mer binding Z-score" test_value=2.47
sequence_string=CGGUAAA property_measured="RNAcompete 7-mer binding Z-score" test_value=0.352
sequence_string=AACUCGU property_measured="RNAcompete 7-mer binding Z-score" test_value=-0.861
sequence_string=AAGAUGU property_measured="RNAcompete 7-mer binding Z-score" test_value=0.13
sequence_string=GGGUAAG property_measured="RNAcompete 7-mer binding Z-score" test_value=3.97
sequence_string=CGGUAAG property_measured="RNAcompete 7-mer binding Z-score" test_value=1.52
sequence_string=AGGUAAA property_measured="RNAcompete 7-mer binding Z-score" test_value=2.1
sequence_string=GUAUGGG property_measured="RNAcompete 7-mer binding Z-score" test_value=4.06
sequence_string=AAAUGGC property_measured="RNAcompete 7-mer binding Z-score" test_value=1.42
sequence_string=UGAGCAU property_measured="RNAcompete 7-mer binding Z-score" test_value=-0.0634
sequence_string=GGGUAAA property_measured="RNAcompete 7-mer binding Z-score" test_value=3.9
